Values were extracted from the supplement of paper PMC12636033.

- Tested on: 2Sb-muMax20 (muMax20 with two 1,3-bis(methyl)benzene Cys staples, A13C/A17C and Q88C/A92C, C-terminal Lys)
- method notes: PBM 8-mer E-score (E-score (rank enrichment, -0.5 to 0.5)); higher = stronger preferential binding
Whole data set: some 33,000 sequences, median “E-score (rank enrichment, -0.5 to 0.5)” near -0.0028, cut for the highest 2% near 0.23. The full list was thinned out, with the highest values kept by preference.
Outcome: MET for PBM 8-mer E-score of at least 0.005; NOT MET for anything lower.

Worked set:
ordered_residues=ACCCCCAA classification="NOT MET"
ordered_residues=AACCCCAG classification=MET
ordered_residues=AATTGGAA classification=MET

Task: hey, is PBM 8-mer E-score for this one >= 0.005? CAGTCCGC
Output: NOT MET

Task: hey, is PBM 8-mer E-score for this one >= 0.005? AGTTCAAA
Output: NOT MET
